- Tested on: NCI-H2009
- ASSAY COMMENT: relative viability (nuclei count vs DMSO), 5 days (fraction); higher = more cells survive
- RUN CONDITIONS: first compound 0.002 µM
RESULT TYPE: relative viability
Give bare numbers.

MOLECULE	relative viability
CC(=O)O[C@@]12CO[C@@H]1C[C@H](O)[C@@]1(C)C(=O)[C@H](O)C3=C(C)[C@@H](OC(=O)[C@H](O)[C@@H](NC(=O)OC(C)(C)C)c4ccccc4)C[C@@](O)([C@@H](OC(=O)c4ccccc4)[C@H]21)C3(C)C [Docetaxel] + Cc1nc(NC(=O)N2CCC[C@H]2C(N)=O)sc1-c1ccnc(C(C)(C)C(F)(F)F)c1 [Alpelisib] (partner 2 µM)	0.988

Let us examine a further case.
Enquiry: Entry CC(=O)O[C@@]12CO[C@@H]1C[C@H](O)[C@@]1(C)C(=O)[C@H](O)C3=C(C)[C@@H](OC(=O)[C@H](O)[C@@H](NC(=O)OC(C)(C)C)c4ccccc4)C[C@@](O)([C@@H](OC(=O)c4ccccc4)[C@H]21)C3(C)C [Docetaxel] + Cc1nc(Nc2ncc(C(=O)Nc3c(C)cccc3Cl)s2)cc(N2CCN(CCO)CC2)n1 [Dasatinib] (partner 0.075 µM) : reported relative viability = ?
Return: 0.273
